The reported numbers originate from PubChem BioAssay (NCI).

Tested on: MDA-MB-231 breast
Assay: NCI-60 one-dose screen, 48 h (100 = growth as untreated, 0 = no growth, -100 = all killed)
Conditions: 10 µM
Experimental: Cells are grown in 96 well plates and exposed to the test compound for 48 hours. Compounds are tested at a single concentration, which is 10^-5 M for most compounds. The reported endpoint is percent growth (GI% or GIPRCNT), where numbers from 0 - 100% represent growth inhibition, and numbers from -100% - 0 represent cell death. For example, a value of 40 represents 60% growth inhibition. A value of 0 means no net growth occurred over the course of the experiment. […]
Compounds without any hit were thinned out: in the full panel of roughly 83,000, 20% have a hit. Activity calls are given as the source filed them. The calls were made as follows: active = growth percent below 10; inactive = the rest.
// values below are reported growth

>>> reported("O=[N+]([O-])c1ccccc1N=Nc1ccc(O)cc1O")
"119% (inactive)"
>>> reported("CC(=O)/C(Cc1ccccc1)=N/O")
"100% (inactive)"
>>> reported("O=S(=O)(O)c1cc(O)c2c(N=Cc3ccccc3O)c(S(=O)(=O)O)ccc2c1")
"127% (inactive)"
>>> reported("CCNc1nc2c(cnn2C)c(=O)[nH]1")
"110% (inactive)"
>>> reported("CCOc1ccc(/C=C/C(=O)c2ccccc2)cc1")
"114% (inactive)"

I'd like to know its growth. The compound in question is `CCOC(=O)c1cc2cccc(OC)c2oc1=O` 107% (inactive)

// growth lookup, key: `CCCCCC(C)(CC(=O)O)CC(=O)O` 138% (inactive)

====

system: PC-3 prostate; assay: NCI-60 one-dose screen, 48 h (100 = growth as untreated, 0 = no growth, -100 = all killed); conditions: 10 µM
About 83,000 compounds went through this panel and 20% of them were active in at least one assay; those are over-represented in the sample as a whole.
MEASURED_ENDPOINT: growth (%)
Numbers only; they are read as %.

>>> reported("Cc1ccc(Cl)cc1N1C(=O)CC(Sc2ccccc2N)C1=O (configuration not stated)")
89.5

Observed growth on PC-3 prostate for `CC1=C(/C=C/C(C)=C/C=C/C(C)=C/CO)C(C)(C)CCC1` , please. 96.5

Observed growth on PC-3 prostate for `CC1(C)S(=O)(=O)OCCOS1(=O)=O` , please. 100

====

system: SN12C renal; assay: NCI-60 one-dose screen, 48 h (100 = growth as untreated, 0 = no growth, -100 = all killed); details: 10 µM
This is part of a sample that, as a whole, favours compounds with a hit. Of some 83,000 tested, about 20% had one in any assay.
MEASURED_ENDPOINT: growth (%)
Unit % implied. Number only.

>>> reported("O=C(O)[C@@H]1[C@H]2C[C@H]3c4[nH]c5ccccc5c4CCN3C[C@@H]2CC[C@@H]1O")
107
>>> reported("COc1cc(/C=N\\Nc2ccccc2)ccc1OC(=O)c1ccccc1")
79.4
>>> reported("N#CSc1cc(S(N)(=O)=O)ccc1N")
101
>>> reported("COc1ccc(Oc2c(I)cc(CC(NC(C)=O)C(=O)O)cc2I)cc1 (stereo unspecified)")
83.8
>>> reported("CCCCCCCCCCC1CO1 (stereo unspecified)")
102

# context switch: different molecule, same growth
Record request: growth value, item CC1CC(O)C2C3(C)CCCC2(COC3=O)C12CCC1(CCOC1=O)O2 (stereo unspecified) 113

====

system: MOLT-4 leukemia; assay: NCI-60 one-dose screen, 48 h (100 = growth as untreated, 0 = no growth, -100 = all killed); details: 10 µM
The panel holds about 83,000 compounds, 20% with a hit somewhere; the sample as a whole holds those more often.
# growth listing for each entry below
Response body: numeric value in %, unit text excluded.

For orientation, consider the following solved cases.
>>> reported("O=[N+]([O-])c1ccc(-c2ncc(-c3ccc(Br)cc3)o2)cc1")
97.6
>>> reported("Cc1ccc(C(=O)c2ccccc2)c(C)c1")
116
>>> reported("O=c1cc(-c2ccccc2)nc2cc(-c3ccco3)[nH]n12")
87
>>> reported("CCCCCCCCOC(=O)c1ccccn1")
116
>>> reported("CCOc1ccc2[nH]c(=S)sc2c1")
86.7
>>> reported("CC(=O)Oc1ccc(Br)cc1C(=O)O")
101
>>> reported("CCO/C=C1\\SC(=S)N(c2cccc(C)c2)C1=O")
95.7
>>> reported("COc1cc(/C=C(\\C#N)C(=O)c2ccccc2)ccc1OCc1ccccc1")
106

Record request: growth value, item `Nc1ccc(N)c([N+](=O)[O-])c1` 104

Look at this compound and give its reported growth. `Cc1cc2nc(CO)[nH]c2cc1C` 103

Reported growth for `CC(C)=CC(=O)OC(=O)C=C(C)C` : what is it? 101

Item `CCOC(=O)C(=O)C=P(c1ccccc1)(c1ccccc1)c1ccccc1` has what recorded growth? 101

// query growth value for entry CC1NC(=O)NC1CCCCCC(=O)O (stereo not drawn) 118

I have this compound here, CC(=O)OCC1=CC2OC(=O)C3=COC(OC4OC(CO)C(O)C(O)C4O)C1C32 (stereo not drawn) , and I need its recorded growth. 141

Which growth is reported for this compound? CCN(CC)CCCC(C)Nc1ccnc(/C=C/c2ccc(Cl)cc2)c1 (stereo not drawn) 13.3

Fill blank: measured growth of the compound `CCS(=O)(=O)CCCl` is ____. 89.5

I have this compound here, `C=C[Si](OC(C)=O)(OC(C)=O)OC(C)=O` , and I need its recorded growth. 98.3

Look up growth: O=S(=O)(O)C(Nc1ccccc1)c1ccccc1 (stereo not drawn) 106

Param item = `CC(=O)NC(N)=S` ; retrieve measured growth. 77.4

Fill blank: measured growth of the compound `Cc1ccc(O)c(C(=O)c2ccccc2)c1` is ____. 112

Value lookup for growth; key = CN(C)c1ccc(CNC(C(=O)c2ccccc2)c2ccccc2)cc1 (stereo not drawn) 94.9

Consider the compound shown here: `COc1cc(/C=N\Nc2ccccc2)ccc1OC(=O)c1ccccc1` What is its recorded growth? 38.5

Any idea what growth was measured for `CN(c1ccccc1)c1ncnc2c1ncn2C` ? 95.6

Item under review: C#C[C@H]1CCCCCC1O (stereo partly drawn) . Reported growth? 98.4

What growth value was documented for this compound, `C/C(O)=C(\C=N\C(N)=S)C(=O)Nc1ccccc1` ? 103

Looking for the measured growth of `CCNCCCCNCCCCNCCCCNCCCCNCC` , can you help? 151

growth lookup needed for `CC(C)CCCC(=O)O` , thanks. 119

Can you share its growth? I mean this compound: `Cc1ccc(C)n1-c1ccsc1C(=O)NNC(=O)CCl` 92.9

====

system: IGROV1 ovarian; test: NCI-60 one-dose screen, 48 h (100 = growth as untreated, 0 = no growth, -100 = all killed); conditions: 10 µM
This is part of a sample that, as a whole, favours compounds with a hit. Of some 83,000 tested, about 20% had one in any assay.
The following molecules are listed with their measured growth values.
Report only the number, with the unit % understood.

>>> reported("O=c1cc2oc3cc(O)c(O)cc3c(-c3ccccc3O)c-2cc1O")
63.9

Quick check: growth of `COc1cc(/C=N\Nc2ccccc2)ccc1OC(=O)c1ccccc1` ? 60.6

Returns the measured growth for the input molecule. Input: `C=CC[N+](C)(C)C` 99.7

Entry under review: `O=C(NCCNC(=O)c1ccc(Cl)cc1Cl)c1ccc(Cl)cc1Cl` . Reported growth? 100

Using the record for `CN(C)c1ccc2nc3ccc(=N)cc-3sc2c1` , report its growth. 49.4

Item under review: `CCCCCCCCOC(=O)c1ccccn1` . Reported growth? 103

Query (molecule): `O=C(O)COCC(=O)O` ; field requested: growth 105

If you can, please state the reported growth value of `Cc1cc(O)ccc1O` . 114

Name the reported growth value associated with the molecule `c1ccc(CN2COc3c(ccc4c3OCN(Cc3ccccc3)C4)C2)cc1` 32.1

What growth value was documented for this molecule, `COc1ccc(NC(=O)CCl)cc1` ? 59

I would be grateful if you could share the reported growth for `COC(=O)c1ccc(NC(=O)CCl)cc1` . 50.6

Could you share which growth value was measured for CC(=Nc1ccccc1)C1=C(O)C(Cc2cccc(F)c2)NC1=O (stereo not drawn) ? 13.8

Field request: growth | item: `CN(C)c1nc2c([nH]1)c(=O)n(C)c(=O)n2C` 101

// returns reported growth for input `NC(=S)NN=C1CCCC1` 93.4

Please report the recorded growth for `CC(=O)N(C)c1ccc([N+](=O)[O-])cc1` . 117

// lookup growth for `COc1cc(OC)c2ccc(=O)oc2c1` 130

====

system: NCI-H460 lung; experiment: NCI-60 one-dose screen, 48 h (100 = growth as untreated, 0 = no growth, -100 = all killed); conditions: 10 µM
This is part of a sample that, as a whole, favours compounds with a hit. Of some 83,000 tested, about 20% had one in any assay.
Quick reference for growth among some compounds
Answer with a number only, understood to be in %.

Below: 5 compounds and their reported growth.
>>> reported("O=C(Cc1nc2ccc([N+](=O)[O-])cc2nc1CC(=O)c1cccnc1)c1cccnc1")
48.1
>>> reported("c1ccc(Cc2ccccc2)cc1")
109
>>> reported("CCCCN(CCCC)CCCO")
109
>>> reported("N=c1c(C(=O)OCc2ccccc2)ncc(CCl)n1O")
99.4
>>> reported("CCCCCCCCCCC(C)Br (configuration not stated)")
113

What does the data say about its growth? Entry: `O=C(O)c1ccccc1NCc1ccco1` 102

Fill in the blank: the reported growth of `COC(=O)c1ccccc1Br` is ____. 107

Entry `COc1ccc(C2(O)CCCCC2)cc1` : reported growth = ? 105

Given the entry Cc1ccc(Cl)cc1N1C(=O)CC(Sc2ccccc2N)C1=O (configuration not stated) , report its measured growth. 111

Looking for the measured growth of `CCOC(=O)CNN` , can you help? 99.6

Find the recorded growth belonging to CC1(C(=O)O)NC(C(=O)O)Cc2c1[nH]c1ccccc21 (configuration not stated) and report it. 105

Suppose we examine the compound `O=C(CCNNC(=O)c1ccncc1)NCc1ccccc1` ; what growth value has been reported? 102

Record request: growth value, item CC(=O)OC(OC(C)=O)C1CCCO1 (configuration not stated) 109

For `CC1=C(/C=C/C(C)=C/C=C/C(C)=C/CO)C(C)(C)CCC1` , what is its reported growth? 117

// returns reported growth for input `O=C(c1ccc(Cl)cc1)c1ccccc1Cl` 103

Reported growth for `[O-][N+](=Nc1cccc(Cl)c1)c1cccc(Cl)c1` : what is it? 99

I have this compound here, `Nc1nc(N)c(N=Nc2ccc(C(=O)O)cc2)c(N)n1` , and I need its recorded growth. 117

Any idea what its growth is? The compound is `O=C(Nc1cc(-c2ccccc2)[nH]n1)c1ccc(Cl)cc1` 56

Fill in: growth of `Cc1nc2ccccc2c(C(=O)O)c1O` is ___ 110

// lookup growth for `CC1=NN(c2ccccc2)C(=O)/C1=C\N1CC(=O)NC1=S` 98.6

Please look up its growth: OCC(O)C(O)C(O)C(O)/C=N/O (configuration not stated) 99.8

Reported growth for `O=C1C=C(Nc2ccc([N+](=O)[O-])cc2)c2ccccc2C1=O` : what is it? 46.4

Recorded growth of `Cc1ccncc1C(N)=O` , please. 101

Given COc1ccc(Oc2c(I)cc(CC(NC(C)=O)C(=O)O)cc2I)cc1 (configuration not stated) , state its recorded growth. 104

I'd like to know its growth. The compound in question is `OCCN1CCOCC1` 104
